Measured values drawn from patent US9255090B2 for this set.

target: hCRTH2 receptor (Homo sapiens (Human), UniProt Q9Y5Y4); assay: hCRTH2 receptor membranes radioligand (3H-PGD2) displacement assay; type: binding; conditions: 3H-PGD2 radioligand displacement, HEK293-hCRTH2 membranes
Sequence (Q9Y5Y4 whole entry): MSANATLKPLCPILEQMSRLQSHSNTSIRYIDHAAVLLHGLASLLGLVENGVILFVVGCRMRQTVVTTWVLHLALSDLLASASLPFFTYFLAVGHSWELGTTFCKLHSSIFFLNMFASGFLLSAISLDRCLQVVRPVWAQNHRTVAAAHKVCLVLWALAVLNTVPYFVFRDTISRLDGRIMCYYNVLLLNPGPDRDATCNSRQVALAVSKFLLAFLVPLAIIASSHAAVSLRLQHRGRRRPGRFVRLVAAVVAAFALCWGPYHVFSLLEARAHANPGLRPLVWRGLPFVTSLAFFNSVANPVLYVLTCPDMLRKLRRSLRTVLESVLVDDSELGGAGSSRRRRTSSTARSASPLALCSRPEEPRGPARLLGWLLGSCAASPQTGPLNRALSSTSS
QUANTITY_NAME: IC50 (nM)
Provide the reading as a plain figure in nM.

Previously resolved entries follow.
COc1ccc(CC(=O)O)cc1-c1ccc(F)c2c1CN(C(=O)CC1COCc3ccccc31)CC2 (racemic); 22.3
COc1ccc(CC(=O)O)cc1-c1ccc(F)c2c1CN(C(=O)[C@@H]1C[C@H]1c1ccccc1)CC2 (racemic) [Example 60]; 2.64
COc1ccc(CC(=O)O)cc1-c1ccc(F)c2c1CN(C(=O)NCc1ccccc1)CC2; 30.6
CCOc1ccc(CC(=O)O)cc1-c1ccc(F)c2c1CN(C(=O)OCCOC)CC2; 5.9
CCOc1ccc(CC(=O)O)cc1-c1ccc(F)c2c1CN(C(=O)CC1OCCc3ccccc31)CC2 (racemic); 8.2
COc1ccc(CC(=O)O)cc1-c1ccc(F)c2c1CN(C(=O)/C=C/c1sc(C)nc1C)CC2; 93.8

Alright, here's another compound for you.
Query: # get_value(readout='IC50', item= COc1ccc(OCC(=O)O)cc1-c1ccc(F)c2c1CN(C(=O)[C@@H]1C[C@H]1c1ccccc1)CC2 )
Response: 4.36

====

target: hCRTH2 receptor (Homo sapiens (Human))
Threshold 9 nM: IC50 strictly smaller gives TRUE, otherwise FALSE.

CCOc1cc(CC(=O)O)ccc1-c1ccc(F)c2c1CN(C(=O)OCc1cc(F)ccc1F)CC2; TRUE
CCCOc1ccc(CC(=O)O)cc1-c1ccc(F)c2c1CN(C(=O)OCc1ccccc1)CC2; TRUE
COc1ccc(CC(=O)O)cc1-c1ccc(OC)c2c1CN(C(=O)OCc1ccccc1)CC2; FALSE
CCOc1ccc(CC(=O)O)cc1-c1ccc(F)c2c1CN(C(=O)OCCc1ccccc1)CC2; TRUE
O=C(O)Cc1ccc(OCC(F)(F)F)c(-c2ccc(F)c3c2CN(C(=O)OCc2ccccc2)CC3)c1; TRUE
O=C(O)Cc1ccc(-c2ccc(F)c3c2CN(C(=O)OCc2ccccc2)CC3)cc1Cl; FALSE

Let us examine a further case.
Query: Field: below-cutoff. Rule: recorded IC50 strictly less than 9 nM. Subject: COc1ccc(CC(=O)O)cc1-c1ccc(F)c2c1CN(C(=O)CC1CCc3ccccc31)CC2 (racemic)
Response: TRUE

====

tested on: eosinophils; assay: Eosinophil shape change assay with human plasma; assay type: cell-based; details: Homo sapiens, Eosinophil, human plasma (50%), PGD2 100 nM activation, antagonistic activity
# key: entry, value: pIC50
Would you please state pIC50, meaning minus log10 of the concentration in mol/L, as a bare number?

CCOc1ccc(CC(=O)O)cc1-c1ccc(F)c2c1CN(C(=O)OCCc1ccccc1)CC2 [Example 373]; 7.38
COc1ccc(CC(=O)O)cc1-c1ccc(F)c2c1CN(C(=O)[C@@H]1C[C@H]1c1ccccc1F)CC2 (racemic) [Example 5]; 7.92
CCOc1cc(CC(=O)O)ccc1-c1ccc(F)c2c1CN(C(=O)C[C@@H](C)c1ccccc1)CC2 [Example 234]; 7.33

Query: # get_value(readout='pIC50', item= COc1ccc(CC(=O)O)cc1-c1ccc(F)c2c1CN(C(=O)CC1COCc3ccccc31)CC2 (racemic) [Example 271] )
Response: 7.04

Query: Now try CCOc1cc(CC(=O)O)ccc1-c1ccc(F)c2c1CN(C(=O)CC1COc3ccccc31)CC2 (racemic) [Example 235] .
Response: 7.70

Query: Now try CCOc1ccc(CC(=O)O)cc1-c1ccc(F)c2c1CN(C(=O)OCC1CCCCC1)CC2 [Example 396] .
Response: 7.74

Query: Now try CCOc1ccc(CC(=O)O)cc1-c1ccc(F)c2c1CN(C(=O)CC1OCCc3ccccc31)CC2 (racemic) [Example 224] .
Response: 8.00
